Molecular target: T1, human GIP receptor (human) (UniProt P48546)
T1 sequence (looked up): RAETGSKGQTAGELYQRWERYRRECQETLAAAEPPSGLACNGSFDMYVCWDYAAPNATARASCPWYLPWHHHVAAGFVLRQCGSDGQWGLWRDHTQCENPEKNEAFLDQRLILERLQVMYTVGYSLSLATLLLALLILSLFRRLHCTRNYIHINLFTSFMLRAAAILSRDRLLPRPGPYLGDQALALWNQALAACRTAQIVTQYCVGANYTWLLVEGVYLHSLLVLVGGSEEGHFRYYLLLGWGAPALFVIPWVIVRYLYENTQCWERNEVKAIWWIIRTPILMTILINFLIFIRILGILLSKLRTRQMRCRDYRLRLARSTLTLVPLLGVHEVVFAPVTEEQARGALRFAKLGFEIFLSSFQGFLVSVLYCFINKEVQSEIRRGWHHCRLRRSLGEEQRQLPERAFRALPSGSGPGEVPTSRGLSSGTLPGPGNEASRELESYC
Assay: cell-based or functional assay
Give measured cAMP Rel EC50 (in the presence of 1% HSA) for each item. Keep answers brief.
Enter your answer as a number in nM; do not include the unit.

Task item: May I ask what cAMP Rel EC50 (in the presence of 1% HSA) has been recorded for YXQGTXTSDXXIXLDXKAQXEFIEXLIEGGPSSGAPPPSGSE (non-natural residues; AEEA-(γGlu)2-C18 diacid on Lys; amide; synthetic construct; SITE 2: note = 2-Aminoisobutyric Acid; SITE 6: note = alpha-methyl-2-fluoro-L-phenylalanine; SITE 10: note = 3-(4-Pyridyl)-L-alanine; SITE 11: note = alpha-methyl-L-serine; SITE 13: note = alpha-methyl-leucine; SITE 16: note = L-ornithine; SITE 17: note = Lysine is chemically mo) [Example 1178] ?
Reply: 0.544

Task item: Field request: cAMP Rel EC50 (in the presence of 1% HSA) | item: YXQGTXTSDXXIXLDXKAQXEFIEXLVEGGPSSGAPPPESE (not fully specified; non-natural residues; lipidated Lys; C-terminal amide; synthetic construct; SITE 2: note = 2-Aminoisobutyric Acid; SITE 6: note = alpha-methyl-2-fluoro-L-phenylalanine; SITE 10: note = 3-(4-Pyridyl)-L-alanine; SITE 11: note = alpha-methyl-L-serine; SITE 13: note = alpha-methyl-leucine; SITE 16: note = L-ornithine; SITE 17: note = Lysine is chemically mo) [Example 1156]
Reply: 1.33

Task item: So what's the measured cAMP Rel EC50 (in the presence of 1% HSA) for this one? YXQGTFTSDFSKXLDKKAQXAFIEYLLEGGPSSGEPPPTEG (synthetic construct; SITE 2: note = 2-Aminoisobutyric Acid; SITE 13: note = alpha-methyl-leucine; SITE 17: note = Lysine is chemically modified through conjugation of the epsilon-amino group of the Lysine side chain with (2-[2-(2-Amino-ethoxy)-ethoxy]-acetyl)-(gamma-Glu)-CO-(CH2) 18-CO2H; SITE 20: n) [Example 36]
Reply: 170
